Reference source: patent US20180008587A1

measured_on: F876L mutant Androgen Receptor (AR-F876L) (Homo sapiens, UniProt P10275, F877L)
Construct: expressed in transfected cells; host or cells: LNCaP (LNCaP F876L)
Sequence (P10275 1-920 F877L): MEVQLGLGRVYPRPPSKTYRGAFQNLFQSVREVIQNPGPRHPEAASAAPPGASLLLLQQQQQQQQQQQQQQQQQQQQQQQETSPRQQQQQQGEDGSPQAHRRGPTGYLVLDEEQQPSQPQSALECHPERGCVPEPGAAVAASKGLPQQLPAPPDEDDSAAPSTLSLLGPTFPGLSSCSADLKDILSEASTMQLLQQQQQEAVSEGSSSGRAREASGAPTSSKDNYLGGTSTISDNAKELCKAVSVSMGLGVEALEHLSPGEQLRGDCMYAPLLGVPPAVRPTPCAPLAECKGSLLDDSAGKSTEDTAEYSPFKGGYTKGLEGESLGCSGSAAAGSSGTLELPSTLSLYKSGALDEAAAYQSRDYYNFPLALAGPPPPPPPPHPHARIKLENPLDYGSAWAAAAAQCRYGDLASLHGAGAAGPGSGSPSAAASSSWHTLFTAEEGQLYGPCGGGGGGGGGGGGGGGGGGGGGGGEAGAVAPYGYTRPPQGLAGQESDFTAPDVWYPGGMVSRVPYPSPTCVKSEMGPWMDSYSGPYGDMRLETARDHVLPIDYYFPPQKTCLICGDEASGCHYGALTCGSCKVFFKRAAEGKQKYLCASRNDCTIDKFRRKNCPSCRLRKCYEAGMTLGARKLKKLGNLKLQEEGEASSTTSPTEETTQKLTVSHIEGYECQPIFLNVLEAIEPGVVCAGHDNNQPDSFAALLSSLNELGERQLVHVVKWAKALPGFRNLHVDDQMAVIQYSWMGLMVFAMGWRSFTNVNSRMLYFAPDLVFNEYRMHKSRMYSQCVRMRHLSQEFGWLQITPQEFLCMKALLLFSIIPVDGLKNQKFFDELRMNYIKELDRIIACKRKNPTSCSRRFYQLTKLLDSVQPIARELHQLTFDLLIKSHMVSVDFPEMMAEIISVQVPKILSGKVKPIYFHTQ
assay_procedure: LNCaP-AR-F876L ANT reporter assay (ARE firefly luciferase, antagonist mode)
Format: cell-based
test_settings: maximum % inhibition of R1881 control response over tested concentration range; read-out: LNCaP-AR-F876L ANT MAX % Inh
Hi there, I'd appreciate the recorded Emax for every entry that follows.
Reply with just the number (in %).

The value of Emax measured for the molecule Cc1cc(N2C(=O)C3(CCC3)N(c3ccc(C(=O)Nc4ccnn4C)c(F)c3)C2=S)cnc1C#N turned out to be 100

The value of Emax measured for the molecule N#Cc1ncc(N2C(=O)C3(CCC3)N(c3ccc(C(N)=O)c(F)c3)C2=S)cc1C(F)(F)F turned out to be 95.4

The value of Emax measured for the molecule CN1CCC(Oc2ccc(N3C(=S)N(c4cnc(C#N)c(C(F)(F)F)c4)C(=O)C34CCC4)cc2)CC1 turned out to be 99.8

The value of Emax measured for the molecule N#Cc1ccc(N2C(=S)N(c3cnc(C#N)c(C(F)(F)F)c3)C(=O)C23CCC3)cc1 turned out to be 98.8

The value of Emax measured for the molecule N#Cc1cccc(N2C(=S)N(c3cnc(C#N)c(C(F)(F)F)c3)C(=O)C23CCC3)c1 turned out to be 101

The value of Emax measured for the molecule Cc1cc(N2C(=O)C3(CCC3)N(c3ccc(OC4CCN(C)CC4)c(F)c3)C2=S)cnc1C#N turned out to be 98.6

The value of Emax measured for the molecule Cc1cc(N2C(=O)C3(CCC3)N(c3ccc(OCCc4ccccn4)c(F)c3)C2=S)cnc1C#N turned out to be 101

The value of Emax measured for the molecule N#Cc1ncc(N2C(=O)C3(CCC3)N(c3cccc(OC(F)(F)F)c3)C2=S)cc1C(F)(F)F turned out to be 99.6

The value of Emax measured for the molecule N#Cc1ncc(N2C(=O)C3(CCC3)N(c3ccc(C(=O)NCc4cnccn4)c(F)c3)C2=S)cc1C(F)(F)F turned out to be 98.9

The value of Emax measured for the molecule N#Cc1ncc(N2C(=O)C3(CCC3)N(c3ccc(OCCc4ncccn4)c(F)c3)C2=S)cc1C(F)(F)F turned out to be 97.8

The value of Emax measured for the molecule Cc1cc(N2C(=O)C3(CCC3)N(c3ccc(OC4CCN(C)CC4)cc3)C2=S)cnc1C#N turned out to be 100

The value of Emax measured for the molecule Cc1cc(N2C(=O)C3(CCC3)N(c3ccc(C(=O)Nc4ccc(Cl)cc4)c(F)c3)C2=S)cnc1C#N turned out to be 93.8

The value of Emax measured for the molecule N#Cc1ncc(N2C(=O)C3(CCC3)N(c3ccc(F)cc3)C2=S)cc1C(F)(F)F turned out to be 99.6

The value of Emax measured for the molecule Cc1cc(N2C(=O)C3(CCC3)N(c3ccc(C(=O)NCc4cccs4)c(F)c3)C2=S)cnc1C#N turned out to be 100

The value of Emax measured for the molecule N#Cc1ncc(N2C(=O)C3(CCC3)N(c3ccc(C(=O)Nc4ccccc4)c(F)c3)C2=S)cc1C(F)(F)F turned out to be 99.1

The value of Emax measured for the molecule Cc1cc(N2C(=O)C3(CCC3)N(c3ccc(OC4CCN(CCO)CC4)cc3)C2=S)cnc1C#N turned out to be 99.3
